# measurement_notes: Suspension physical testing: particle size, pH, osmolality, syringeability
# Format: physicochemical
# experimental_setup: formulated suspension
Provide the reported Formulated Suspension Osmolality of each item.
Reply with just the number (in mOsm/kg).

Ask: Query: Formulated Suspension Osmolality; subject: COC(=O)c1ccc2c(c1)NC(=O)/C2=C(\Nc1ccc(N(C)C(=O)CN2CCN(C)CC2)cc1)c1ccccc1 [Nintedanib]
Result: 207

Ask: // query: COC(=O)N(C)c1c(N)nc(-c2nn(Cc3ccccc3F)c3ncccc23)nc1N [Riociguat]
Result: 201

Ask: // query: Cc1ccc(=O)n(-c2ccccc2)c1 [Pirfenidone]
Result: 312

Ask: // query: CNC(=O)c1cc(Oc2ccc(NC(=O)Nc3ccc(Cl)c(C(F)(F)F)c3)cc2)ccn1.Cc1ccc(S(=O)(=O)O)cc1 [Sorafenib Hemi Tosylate]
Result: 216

Ask: // query: CCN(CC)CCNC(=O)c1c(C)[nH]c(/C=C2\C(=O)Nc3ccc(F)cc32)c1C [Sunitinib]
Result: 201

Ask: // query: CNC(=O)c1ccccc1Sc1ccc2c(/C=C/c3ccccn3)n[nH]c2c1 [Axitinib]
Result: 206

Ask: // query: COc1cc2nccc(Oc3ccc(NC(=O)NC4CC4)c(Cl)c3)c2cc1C(N)=O [Lenvatinib]
Result: 201

----------
# measurement_notes: in vivo
# experimental_setup: New Zealand White, rabbit
attribute_measured: concentration at 5 day of dosing (ng/mL)
Reply with just the number (in ng/mL).

Ask: Query: concentration at 5 day of dosing; subject: COc1cc2nccc(Oc3ccc(NC(=O)NC4CC4)c(Cl)c3)c2cc1C(N)=O
Result: 131

----------
# measurement_notes: in vivo
# experimental_setup: Dutch Belted, rabbit
Provide the reported concentration at 42 days of each item.
The answer consists of two parts: a number and, after it, its unit.

Ask: Query: concentration at 42 days; subject: COc1cc2nccc(Oc3ccc(NC(=O)NC4CC4)c(Cl)c3)c2cc1C(N)=O
Result: 3.91 ng/mL

Ask: // query: COC(=O)c1ccc2c(c1)NC(=O)/C2=C(\Nc1ccc(N(C)C(=O)CN2CCN(C)CC2)cc1)c1ccccc1
Result: 0.348 ng/mL

----------
# measurement_notes: Local tolerance and ocular distribution, topical instillation three times daily for 5 days
# experimental_setup: New Zealand White, rabbit, plasma, topical, 35 μl eyedrop of 0.3% w/w to the right eye, three times daily
attribute_measured: concentration at 5 day of dosing
The answer consists of two parts: a number and, after it, its unit.

Ask: Query: concentration at 5 day of dosing; subject: CNC(=O)c1ccccc1Sc1ccc2c(/C=C/c3ccccn3)n[nH]c2c1 [Axitinib]
Result: 0.29 ng/mL

----------
# experimental_setup: male, Wistar, rat, in vivo, 2 weeks after the second injection
attribute_measured: Prostate concentrations Mean (µg/g)
Reply with just the number (in µg/g).

Ask: Query: Prostate concentrations Mean; subject: COC(=O)N(C)c1c(N)nc(-c2nn(Cc3ccccc3F)c3ncccc23)nc1N [Riociguat]
Result: 492

----------
# measurement_notes: Suspension physical testing: particle size, pH, osmolality, syringeability
# Type: physicochemical
# experimental_setup: formulated suspension; needle gauge passed
attribute_measured: Formulated Suspension Syringeability

* COc1cc2nccc(Oc3ccc(NC(=O)NC4CC4)c(Cl)c3)c2cc1C(N)=O | Pass 27G
* CCN(CC)CCNC(=O)c1c(C)[nH]c(/C=C2\C(=O)Nc3ccc(F)cc32)c1C | Pass 25G
* CNC(=O)c1cc(Oc2ccc(NC(=O)Nc3ccc(Cl)c(C(F)(F)F)c3)cc2)ccn1.Cc1ccc(S(=O)(=O)O)cc1 [Sorafenib Hemi Tosylate] | Pass 27G
* COC(=O)c1ccc2c(c1)NC(=O)/C2=C(\Nc1ccc(N(C)C(=O)CN2CCN(C)CC2)cc1)c1ccccc1 | Pass 23G

Ask: Query: Formulated Suspension Syringeability; subject: COC(=O)N(C)c1c(N)nc(-c2nn(Cc3ccccc3F)c3ncccc23)nc1N
Result: Pass 27G

Ask: // query: Cc1ccc(=O)n(-c2ccccc2)c1
Result: Pass 23G

Ask: // query: CNC(=O)c1ccccc1Sc1ccc2c(/C=C/c3ccccn3)n[nH]c2c1
Result: Pass 25G
